- Assayed system: c-Met kinase (Homo sapiens, UniProt P08581)
- Construct: c-Met kinase domain recombinant protein diluted with 49 μL of the reaction buffer was added
- Sequence (P08581 1078-1345 limits assumed): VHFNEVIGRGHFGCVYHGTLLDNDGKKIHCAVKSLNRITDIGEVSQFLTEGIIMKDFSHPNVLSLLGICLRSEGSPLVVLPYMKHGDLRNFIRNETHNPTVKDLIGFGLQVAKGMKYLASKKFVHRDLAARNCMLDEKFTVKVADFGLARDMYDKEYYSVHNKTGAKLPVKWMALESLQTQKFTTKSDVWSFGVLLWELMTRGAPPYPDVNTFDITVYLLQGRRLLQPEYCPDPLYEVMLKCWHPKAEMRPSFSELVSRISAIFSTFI
- Run description: Inhibitory effect on c-Met kinase activity at molecular level (ELISA)
Provide the reported IC50 of each item.

O=C(Nc1ccc(Oc2ccnc3cc(OCCN4CCOCC4)ncc23)c(F)c1)c1c[nH]cc(-c2ccc(F)cc2)c1=O [Compound 22S]	1 to 10 nM
O=C(Nc1ccc(F)cc1)C1(C(=O)Nc2ccc(Oc3ccnc4ncc(N5CCNCC5)nc34)c(F)c2)CC1 [Compound 65S]	1000 to 10000 nM
O=C(COc1cc2nccc(Oc3ccc(NC(=O)C4(C(=O)Nc5ccc(F)cc5)CC4)cc3F)c2cn1)N1CCOCC1 [Compound 36S]	10 to 100 nM

Now let's try a different one.
What value of measured IC50 is listed for O=C(Nc1ccc(F)cc1)C1(C(=O)Nc2ccc(Oc3ccnc4cc(OCCN5CCOCC5)ncc34)c(F)c2)CC1 ? 1 to 10 nM

----------
Provide the reported pIC50 of each item.
- Assayed system: c-Met kinase (Homo sapiens)
- Construct: c-Met kinase domain recombinant protein diluted with 49 μL of the reaction buffer was added
- Run description: Inhibitory effect on c-Met kinase activity at molecular level (ELISA);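 also: recombinant c-Met kinase domain with 5 µM ATP, 1 h at 37 °C, substrate phosphorylation detected by anti-phosphotyrosine PY99 ELISA at 490 nm versus DMSO negative control, ATP-free wells as blank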
pIC50: −log10 of the molar value.

Solved cases below.
CN1CCN(c2cnc3c(Oc4ccc(NC(=O)C5(C(=O)Nc6ccc(F)cc6)CC5)cc4F)ccnc3n2)CC1 [Compound 59S]	8.00 to 9.00
CN(C(=O)C1(C(=O)Nc2ccc(Oc3ccnc4cc(OCCN5CCOCC5)ncc34)c(F)c2)CC1)c1ccc(F)cc1 [Compound 14S]	6.00 to 7.00
O=C(Nc1ccc(F)cc1)C1(C(=O)Nc2ccc(Oc3ccnc4ncc(OCCN5CCOCC5)nc34)c(F)c2)CC1 [Compound 67S]	5.00 to 6.00
O=C(Nc1ccc(F)cc1)c1cccn(-c2ccc(Oc3ccnc4cc(OCCN5CCOCC5)ncc34)c(F)c2)c1=O [Compound 16S]	7.00 to 8.00
C[C@@H]1COCCN1CCOc1cc2nccc(Oc3ccc(NC(=O)C4(C(=O)Nc5ccc(F)cc5)CC4)cc3F)c2cn1 [Compound 30S]	7.00 to 8.00
Cn1cc(-c2cc3nccc(Oc4ccc(NC(=O)c5cccn(-c6ccc(F)cc6)c5=O)cc4F)c3cn2)cn1 [Compound 53S]	7.00 to 8.00
O=C(Nc1ccc(F)cc1)C1(C(=O)Nc2ccc(Oc3ccnc4cc(OCCCN5CCOCC5)ncc34)c(F)c2)CC1 [Compound 8S]	8.00 to 9.00
O=C(Nc1ccc(F)cc1)C1(C(=O)Nc2ccc(Oc3ccnc4cc(N5CCC(N6CCOCC6)CC5)ncc34)c(F)c2)CC1 [Compound 28S]	7.00 to 8.00
Nc1ccc(Oc2ccnc3cc(OCCN4CCOCC4)ncc23)c(F)c1 [Compound 5S]	6.00 to 7.00
O=C(Nc1ccc(F)cc1)C1(C(=O)Nc2ccc(Oc3ccnc4cc(N5CCN(Cc6ccccc6)CC5)ncc34)c(F)c2)CC1 [Compound 32S]	7.00 to 8.00

Below are some compounds; for each one, tell me its pIC50.
1. O=C(Nc1ccc(F)cc1)C1(C(=O)Nc2ccc(Oc3ccnc4nc(OCCN5CCOCC5)cnc34)c(F)c2)CC1 [Compound 60S]
2. O=C(Nc1ccc(F)cc1)C1(C(=O)Nc2ccc(Oc3ccnc4cc(OCCc5ccncc5)ncc34)c(F)c2)CC1 [Compound 25S]
3. O=C(Nc1ccc(F)cc1)C1(C(=O)Nc2ccc(Oc3ccnc4cc(OCCn5ccnc5)ncc34)c(F)c2)CC1 [Compound 31S]
4. CN1CCN(CCOc2cc3nccc(Oc4ccc(NC(=O)C5(C(=O)Nc6ccc(F)cc6)CC5)cc4F)c3cn2)CC1 [Compound 11S]

7.00 to 8.00
8.00 to 9.00
7.00 to 8.00
8.00 to 9.00

----------
Provide the reported IC50 of each item.
- Test system: EBC-1 cells
- Run description: Inhibition of c-Met-mediated EBC-1 cell proliferation (SRB staining)
- Format: cell-based
- Condition description: Homo sapiens, 72 hours treatment

CN1CCN(c2cnc3c(Oc4ccc(NC(=O)C5(C(=O)Nc6ccc(F)cc6)CC5)cc4F)ccnc3n2)CC1 [Compound 59S]	100 to 1000 nM
O=C(Nc1ccc(F)cc1)C1(C(=O)Nc2ccc(Oc3ccnc4ncc(OCCCN5CCOCC5)nc34)c(F)c2)CC1 [Compound 68S]	1000 to 10000 nM
O=C(Nc1ccc(F)cc1)C1(C(=O)Nc2ccc(Oc3ccnc4cc(Cn5ccnc5)ncc34)c(F)c2)CC1 [Compound 44S]	100 to 1000 nM
COc1cc2nccc(Oc3ccc(NC(=O)C4(C(=O)Nc5ccc(F)cc5)CC4)cc3F)c2cn1 [Compound 3S]	100 to 1000 nM
CN1CCN(CCOc2cnc3nccc(Oc4ccc(NC(=O)C5(C(=O)Nc6ccc(F)cc6)CC5)cc4F)c3n2)CC1 [Compound 66S]	1000 to 10000 nM
CS(=O)(=O)n1cc(-c2cc3nccc(Oc4ccc(NC(=O)C5(C(=O)Nc6ccc(F)cc6)CC5)cc4F)c3cn2)cn1 [Compound 40S]	10 to 100 nM
CN1CCN(CCOc2cc3nccc(Oc4ccc(NC(=O)C5(C(=O)Nc6ccc(F)cc6)CC5)cc4F)c3cn2)CC1 [Compound 11S]	100 to 1000 nM
O=C(Nc1ccc(F)c(F)c1)C1(C(=O)Nc2ccc(Oc3ccnc4cc(OCCN5CCOCC5)ncc34)c(F)c2)CC1 [Compound 23S]	100 to 1000 nM

Below are some compounds; for each one, tell me its IC50.
1. O=C(Nc1ccc(F)cc1)C1(C(=O)Nc2ccc(Oc3ccnc4ncc(NCCCN5CCOCC5)nc34)c(F)c2)CC1 [Compound 63S]
2. O=C1COCCN1CCOc1cc2nccc(Oc3ccc(NC(=O)C4(C(=O)Nc5ccc(F)cc5)CC4)cc3F)c2cn1 [Compound 37S]

["1000 to 10000 nM", "10 to 100 nM"]

Cited source: patent US10710996B2
